- testTarget: hGal-3 (UniProt P17931 2-250)
- Sequence (P17931 2-250): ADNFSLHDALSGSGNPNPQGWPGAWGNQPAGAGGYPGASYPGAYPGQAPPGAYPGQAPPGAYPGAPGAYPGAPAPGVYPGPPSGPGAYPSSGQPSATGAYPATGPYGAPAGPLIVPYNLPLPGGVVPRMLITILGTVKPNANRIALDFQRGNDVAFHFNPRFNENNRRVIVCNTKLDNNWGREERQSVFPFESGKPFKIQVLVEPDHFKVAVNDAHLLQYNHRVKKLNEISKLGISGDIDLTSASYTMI
- runDescription: SPR
Let's look at some binders and their measured pKd.
Please express pKd as -log10 of the molar concentration.

# binder, pKd
records = [
    ("7D8.2D8 (antibody, V domains shown) VH: EVQLVESGGGLVKPGGSLKLSCAASGFTFSSYAMSWVRQTPEKRLEWVATISDGGIYTYYPDNVKGRFTISRDNAKNNLFLQMSHLKSEDTAMYYCVRDGGYWGQGTTLTVSS VL: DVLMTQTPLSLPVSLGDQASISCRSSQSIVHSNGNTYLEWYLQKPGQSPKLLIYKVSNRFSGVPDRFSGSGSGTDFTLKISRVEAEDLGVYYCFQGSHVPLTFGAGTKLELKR", 8.60),
    ("4A11.2B5 (antibody, V domains shown) VH: QVQLQQSGPELVKPGASVKISCKASGYSFTNYYIHWVKQRPGQGLEWIGWIYPGSGNTNYNEKFKGKATLTADTSSSTTNMQLSSLTSEDSAVYYCSTAPGGFDVWGSGTTVTVSS VL: DIVMTQAAFSNPVTLGTSASISCRSSKSLLHSDGITYLYWYLQRPGQSPQLLIYRMSNLASGVPDRFSGSGSGTDFTLRISRVEAEDVGVYYCAQMLEFPLTFGAGTKLELKR", 8.28),
    ("6H6.2D6 (antibody, V domains shown) VH: QIQLVQSGPELKKPGETVKISCKASGYTFTTYGMSWVKQAPGKGLKWMAWINTYSGVPTYADDFKGRFAFSLETSASTAYLQINNLTNEDTATYFCARGPYAMDYWGQGTSVTVSS VL: DIQMTQTTSSLSASLGDRVTISCSASQGISNYLNWYQQKPDGTVKLLIYYTSSLHSGVPSRFSGSGSGTDYSLTISNLEPEDIATYYCQQYSELPYTFGSGTKLEIKR", 8.31),
]

Consider the additional binder presented here.
Short answer for 15F10.2D6 (antibody, V domains shown) VH: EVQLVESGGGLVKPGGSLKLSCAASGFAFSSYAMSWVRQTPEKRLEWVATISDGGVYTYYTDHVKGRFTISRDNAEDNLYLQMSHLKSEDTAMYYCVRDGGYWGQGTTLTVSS VL: DVLMTQTPLSLPVSLGDQASISCRSSQSIVHNNGNTYLEWYLQKPGQSPKLLIYKVSNRFSGVPDRFSGSGSGTDFTLKISRVEAEDLGVYYCFQGSHVPLTFGGGTKLELKR : pKd was 8.69

These measurements were taken from patent US20220411514A1.
